- systemName: T1, proprotein convertase PC2
- T1 sequence (P16519 110-638, species assumed, looked up): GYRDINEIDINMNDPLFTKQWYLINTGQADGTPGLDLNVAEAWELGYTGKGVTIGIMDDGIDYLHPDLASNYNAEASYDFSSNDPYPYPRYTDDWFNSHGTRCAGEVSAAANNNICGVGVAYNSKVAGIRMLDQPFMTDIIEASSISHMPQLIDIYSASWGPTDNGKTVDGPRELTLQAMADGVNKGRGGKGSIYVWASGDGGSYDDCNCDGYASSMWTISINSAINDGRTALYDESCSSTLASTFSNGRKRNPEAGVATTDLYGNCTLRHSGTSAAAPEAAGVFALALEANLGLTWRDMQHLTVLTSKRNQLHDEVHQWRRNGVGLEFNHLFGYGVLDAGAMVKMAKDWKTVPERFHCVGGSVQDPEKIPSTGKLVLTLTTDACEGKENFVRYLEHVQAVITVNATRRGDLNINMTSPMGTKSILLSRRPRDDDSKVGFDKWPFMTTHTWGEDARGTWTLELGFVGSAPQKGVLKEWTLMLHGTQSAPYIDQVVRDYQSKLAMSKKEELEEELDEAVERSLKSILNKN
- experimentSummary: enzyme inhibition, pERTKR-MCA hydrolysis (fluorescence), competitive Ki
Give Ki for every item shown.
One number for each entry, in nM.

Please review the following examples before continuing.
(Q) Quick check: Ki of H-LLRVKR-NH2 (L-hexapeptide, free N-terminus) [LLRVKR-NH2] ?
(A) 2300

(Q) Entry under review: Ac-LLRVKR-NH2 (L-hexapeptide; also called acetylated and amidated LLRVKR) [Ac-LLRVKR-NH2] . Reported Ki?
(A) 1000

(Q) Can you share its Ki? I mean this binder: Ac-LLRVKR-OH (L-hexapeptide, free C-terminus) [Ac-LLRVKR]
(A) 1300

Moving on to another binder below.
(Q) Please report the recorded Ki for H-LLRVKR-OH (L-hexapeptide without terminal groups; also called unmodified LLRVKR) .
(A) 3700
